Molecular target: Antibody 6 (Eu3+ cryptate labelled, Example 5)
Sequence (VH, as listed by the source, chain 1 of 2): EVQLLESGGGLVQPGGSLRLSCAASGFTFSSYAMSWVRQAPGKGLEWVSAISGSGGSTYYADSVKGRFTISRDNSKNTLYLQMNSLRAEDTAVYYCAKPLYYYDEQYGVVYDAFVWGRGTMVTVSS
Sequence (VL, as listed by the source, chain 2 of 2): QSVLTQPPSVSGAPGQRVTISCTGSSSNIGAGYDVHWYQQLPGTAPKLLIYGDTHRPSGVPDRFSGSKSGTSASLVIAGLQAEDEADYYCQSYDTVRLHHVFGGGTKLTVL
Test: HTRF competition: unlabelled test protein against biotin labelled human IL-1R1/Fc binding to cryptate labelled antibody
parameter: IC50 (pM)
Numeric only. Scale: pM

Please review the entries below; each comes with its answer.
binder	readout-number
MoD2c IL1R1 (Fc fusion, human;mouse, UniProt P14778 18-177, looked up, not shown: a dimerising Fc or GST, also called chimera without loop d2-e2) LEADKCKEREEKIILVSSANEIDVRPCPLNPNEHKGTITWYKDDSKTPVSTEQASRIHQHKEKLWFVPAKVEDSGHYYCVVRNSSYCLRIKISAKFVENEPNLCYNAQAIFKQKLPVAGDGGLVCPYMEFFKNENNELPKLQWYKDCKPLLLDNIHFSGVKDKLIVMNVAEKHRGNYTCHASYTYLGKQYPITRVIEFITLEENKPTRPVIVSPANETMEVDLGSQIQLICNVTGQLSDIAYWKWNGSVIDEDDPVLGEDYYSVENPANKRRSTLITVLNISEIESRFYKHPFTCFAKNTHGIDAAYIQLIYPVTNFQK	637
MoD3b IL1R1 (Fc fusion, human;mouse, UniProt P14778 18-309, looked up, not shown: a dimerising Fc or GST) LEADKCKEREEKIILVSSANEIDVRPCPLNPNEHKGTITWYKDDSKTPVSTEQASRIHQHKEKLWFVPAKVEDSGHYYCVVRNSSYCLRIKISAKFVENEPNLCYNAQAIFKQKLPVAGDGGLVCPYMEFFKNENNELPKLQWYKDCKPLLLDNIHFSGVKDRLIVMNVAEKHRGNYTCHASYTYLGKQYPITRVIEFITLEENKPTRPVIVSPANETMEVDLGSQIQLICNVTGQLSDIAYWKWNGSVIDEDDPVLGEDYYSVENPANKRRSTLITVLNISEIESRFYKHPFICVVKNTNIFESAHVQLIYPVTNFQK	337
MoD3 HuD1-D2 IL1R1 (Fc fusion, human;mouse, UniProt P14778 18-227, looked up, not shown: a dimerising Fc or GST, range 1-227;range 231-338) LEADKCKEREEKIILVSSANEIDVRPCPLNPNEHKGTITWYKDDSKTPVSTEQASRIHQHKEKLWFVPAKVEDSGHYYCVVRNSSYCLRIKISAKFVENEPNLCYNAQAIFKQKLPVAGDGGLVCPYMEFFKNENNELPKLQWYKDCKPLLLDNIHFSGVKDRLIVMNVAEKHRGNYTCHASYTYLGKQYPITRVIEFITLEENKPTRPVILSPRNETIEADPGSMIQLICNVTGQFSDLVYWKWNGSEIEWNDPFLAEDYQFVEHPSTKRKYTLITTLNISEVKSQFYRYPFICVVKNTNIFESAHVQLIYPVPDFK	147
MoD2a IL1R1 (Fc fusion, human;mouse, UniProt P14778 18-122, looked up, not shown: a dimerising Fc or GST, range 1-122;range 126-137;range 135-336; also called chimera without human beta strand a2) LEADKCKEREEKIILVSSANEIDVRPCPLNPNEHKGTITWYKDDSKTPVSTEQASRIHQHKEKLWFVPAKVEDSGHYYCVVRNSSYCLRIKISAKFVENEPNLCYSTQATFPQRLHIAGDGGLVCPYMEFFKNENNELPKLQWYKDCKPLLLDNIHFSGVKDRLIVMNVAEKHRGNYTCHASYTYLGKQYPITRVIEFITLEENKPTRPVIVSPANETMEVDLGSQIQLICNVTGQLSDIAYWKWNGSVIDEDDPVLGEDYYSVENPANKRRSTLITVLNISEIESRFYKHPFTCFAKNTHGIDAAYIQLIYPVTNFQK	4600
MoD3a2 IL1R1 (Fc fusion, human;mouse, UniProt P14778 18-272, looked up, not shown: a dimerising Fc or GST, range 1-272;range 276-292;range 290-336) LEADKCKEREEKIILVSSANEIDVRPCPLNPNEHKGTITWYKDDSKTPVSTEQASRIHQHKEKLWFVPAKVEDSGHYYCVVRNSSYCLRIKISAKFVENEPNLCYNAQAIFKQKLPVAGDGGLVCPYMEFFKNENNELPKLQWYKDCKPLLLDNIHFSGVKDRLIVMNVAEKHRGNYTCHASYTYLGKQYPITRVIEFITLEENKPTRPVIVSPANETMEVDLGSQIQLICNVTGQLSDIAYWKWNGSVIDEDDPFLAEDYQFVEHPSTKRKSTLITVLNISEIESRFYKHPFTCFAKNTHGIDAAYIQLIYPVTNFQK	268

query: Any idea what its IC50 is? The binder is MoD1b IL1R1 (Fc fusion, human;mouse, UniProt P14778 18-42, looked up, not shown: a dimerising Fc or GST, range 1-42;range 45-56;range 54-336) LEADKCKEREEKIILVSSANEIDVRKCPLTPNKMHGDTITWYKDDSKTPVSTEQASRIHQHKEKLWFVPAKVEDSGHYYCVVRNSSYCLRIKISAKFVENEPNLCYNAQAIFKQKLPVAGDGGLVCPYMEFFKNENNELPKLQWYKDCKPLLLDNIHFSGVKDRLIVMNVAEKHRGNYTCHASYTYLGKQYPITRVIEFITLEENKPTRPVIVSPANETMEVDLGSQIQLICNVTGQLSDIAYWKWNGSVIDEDDPVLGEDYYSVENPANKRRSTLITVLNISEIESRFYKHPFTCFAKNTHGIDAAYIQLIYPVTNFQK
result: 201

Where do these numbers come from? They come from patent US20100221257A1.
